# study system: human TLR 8 protein in HEK-blue hTLR 8 tool cell line (Homo sapiens, UniProt Q9NR97)
# Construct: expressed in transfected cells; host or cells: HEK293 (HEK-Blue hTLR8)
# Sequence (Q9NR97 27-1041): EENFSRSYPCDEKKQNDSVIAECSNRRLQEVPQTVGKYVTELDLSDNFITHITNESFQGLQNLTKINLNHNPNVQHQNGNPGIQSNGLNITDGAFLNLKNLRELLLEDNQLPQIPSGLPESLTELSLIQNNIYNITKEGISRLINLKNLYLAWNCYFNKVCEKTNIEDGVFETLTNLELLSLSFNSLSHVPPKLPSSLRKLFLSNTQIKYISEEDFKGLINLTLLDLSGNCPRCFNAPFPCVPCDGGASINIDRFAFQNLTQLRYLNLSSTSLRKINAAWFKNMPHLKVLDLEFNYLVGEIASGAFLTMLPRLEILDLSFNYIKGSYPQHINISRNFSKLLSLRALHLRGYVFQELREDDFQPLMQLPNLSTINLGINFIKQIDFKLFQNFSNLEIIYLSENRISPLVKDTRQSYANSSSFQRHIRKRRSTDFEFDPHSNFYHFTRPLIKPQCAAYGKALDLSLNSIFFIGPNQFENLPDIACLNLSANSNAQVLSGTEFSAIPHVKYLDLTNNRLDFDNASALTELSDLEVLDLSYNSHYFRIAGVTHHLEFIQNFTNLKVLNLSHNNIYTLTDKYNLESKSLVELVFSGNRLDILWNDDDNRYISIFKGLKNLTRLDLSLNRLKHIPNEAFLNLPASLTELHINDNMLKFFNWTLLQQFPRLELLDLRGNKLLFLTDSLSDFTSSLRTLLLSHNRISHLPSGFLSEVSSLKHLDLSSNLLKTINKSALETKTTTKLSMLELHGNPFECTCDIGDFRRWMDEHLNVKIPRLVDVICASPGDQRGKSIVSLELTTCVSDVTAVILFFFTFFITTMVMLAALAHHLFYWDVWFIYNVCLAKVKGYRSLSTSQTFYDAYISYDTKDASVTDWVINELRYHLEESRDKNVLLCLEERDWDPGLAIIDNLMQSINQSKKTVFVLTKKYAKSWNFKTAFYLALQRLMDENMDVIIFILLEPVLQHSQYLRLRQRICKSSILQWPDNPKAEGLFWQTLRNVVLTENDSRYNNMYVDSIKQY
# protocol: TLR8 stimulation determined by HEK-Blue Detection (NF-κB/SEAP reporter)
# Type: cell-based
# details: HEK-Blue hTLR8 cells, 16 h incubation, relative to maximum activation by Resiquimod or motolimod; read-out: EC50 (nmol)
# Description: TLR8 Stimulation Determined by HEK-Blue Detection This assay was designed to study the stimulation of human TLR 8 protein in HEK-blue hTLR 8 tool cell line by monitoring the activation of NF-κB. […] The level of SEAP can be easily determined by HEK-Blue Detection (a cell culture medium that allows real-time detection of SEAP). […] The hydrolysis of substrate by SEAP produces purple/blue color which can be measured by spectrophotometer. […]
Let's look at some molecules and their measured EC50.
reported property: EC50

>>> measured_result("CCC[C@H](C)Oc1nc(N)c2ncc(NC3CCNCC3)n2n1 [Compound B37]")
"> 10 µM"
>>> measured_result("CCCC(C)Oc1nc(N)c2ncc(CC3CCCCC3)n2n1 (stereo not drawn) [Compound B29]")
"> 10 µM"
>>> measured_result("CCCC(C)Oc1nc(N)c2ncc(CN3CCC(CNC)CC3)n2n1 (stereo not drawn) [Compound B22]")
"> 10 µM"

---

# study system: human TLR 8 protein in HEK-blue hTLR 8 tool cell line (Homo sapiens)
# Construct: expressed in transfected cells; host or cells: HEK293 (HEK-Blue hTLR8)
# protocol: TLR8 stimulation determined by HEK-Blue Detection (NF-κB/SEAP reporter)
# Assay type: cell-based
# details: HEK-Blue hTLR8 cells, 16 h incubation, relative to maximum activation by Resiquimod or motolimod; read-out: EC50 (nmol)
pEC50: −log10 of the molar value.
Where pEC50 equals or exceeds 7, the correct label is satisfied; where it does not, the label is not satisfied.

>>> group_label("CCCC(C)Oc1nc(N)c2ncc(CN3CCC(NC)CC3)n2n1 (stereo not drawn)")
"not satisfied"
>>> group_label("Cc1cnc(COc2nc(N)c3ncc(CC4CCNCC4)n3n2)s1")
"not satisfied"
>>> group_label("CCCC(C)Oc1nc(N)c2ncc(CC3CCOCC3)n2n1 (stereo not drawn)")
"not satisfied"
>>> group_label("Nc1nc(OCC2CCOC2)nn2c(CC3CCNCC3)cnc12 (stereo not drawn)")
"not satisfied"
>>> group_label("CCCC(C)Oc1nc(N)c2ncc(C3(O)CC4(CCNCC4)C3)n2n1 (stereo not drawn)")
"not satisfied"
>>> group_label("CCCC(C)Oc1nc(N)c2ncc(CC3(C)CCNCC3)n2n1 (stereo not drawn)")
"not satisfied"
>>> group_label("Cc1cc(COc2nc(N)c3ncc(CC4CCNCC4)n3n2)no1")
"not satisfied"
>>> group_label("CCC[C@H](C)Oc1nc(N)c2ncc(CC3CCN(CCN)CC3)n2n1")
"satisfied"
>>> group_label("CCC[C@H](C)Oc1nc(N)c2ncc(CC3CCCNC3)n2n1 (stereo partly drawn)")
"not satisfied"
>>> group_label("CCCC(C)Oc1nc(N)c2ncc(CN3CCN[C@H](C)C3)n2n1 (stereo partly drawn)")
"not satisfied"
>>> group_label("CCCCOc1nc(N)c2ncc(CC3CCNCC3)n2n1")
"satisfied"
>>> group_label("CCC[C@H](C)Oc1nc(N)c2ncc(C=C3CCNCC3)n2n1")
"not satisfied"

---

# study system: human TLR 8 protein in HEK-blue hTLR 8 tool cell line (Homo sapiens)
# Construct: expressed in transfected cells; host or cells: HEK293 (HEK-Blue hTLR8)
# protocol: TLR8 stimulation determined by HEK-Blue Detection (NF-κB/SEAP reporter)
# Format: cell-based
# details: HEK-Blue hTLR8 cells, 16 h incubation, relative to maximum activation by Resiquimod or motolimod; read-out: EC50 (nmol)
# Excerpt: TLR8 Stimulation Determined by HEK-Blue Detection This assay was designed to study the stimulation of human TLR 8 protein in HEK-blue hTLR 8 tool cell line by monitoring the activation of NF-κB. […] The level of SEAP can be easily determined by HEK-Blue Detection (a cell culture medium that allows real-time detection of SEAP). […] The hydrolysis of substrate by SEAP produces purple/blue color which can be measured by spectrophotometer. […]
pEC50: −log10 of the molar value.
reported property: pEC50

>>> measured_result("CCC[C@H](C)Oc1nc(N)c2ncc(CC3CNC3)n2n1 [Compound B39]")
6.90
>>> measured_result("CCC[C@H](C)Oc1nc(N)c2ncc(CC3CCCNCC3)n2n1 (stereo partly drawn) [Compound B25]")
7.20
>>> measured_result("CCC[C@H](C)Oc1nc(N)c2ncc(CC3CCN(CC4CCNCC4)CC3)n2n1 [Compound B14]")
6.86
